// molecules with reported IC50 on Rho-associated protein kinase 1 (Homo sapiens), multi-publication

Below, each entry is followed by its recorded IC50 result.
>  <compound.smiles>
CN(C)C(=O)c1cc2ccc(-c3nccc(Nc4ccc(-c5cn[nH]c5)cc4)n3)cc2[nH]1

>  <IC50>
> 10 µM

$$$$
>  <compound.smiles>
CN1C(=O)[C@@H](Cc2ccc(-c3ccnc(N)c3)cc2)NC(=O)c2cc(Cl)ccc21

>  <IC50>
> 10 µM

$$$$
>  <compound.smiles>
O=C(Nc1cccc(-c2nnc(Nc3ccc4[nH]ncc4c3)o2)c1)c1cn[nH]c1

>  <IC50>
> 10 µM

$$$$
>  <compound.smiles>
O=C(c1cc2ccc(-c3nccc(Nc4ccc(-c5cn[nH]c5)cc4)n3)cc2[nH]1)N1CCOCC1

>  <IC50>
> 10 µM

$$$$

Query: # lookup: Rho-associated protein kinase 1 (Homo sapiens) IC50, key = `Cn1cc(C(=O)Nc2cc(-c3nnc(Nc4ccc5[nH]ncc5c4Cl)o3)cn(C)c2=O)cn1`
Response: < 0.3 µM

Query: Under Rho-associated protein kinase 1 (Homo sapiens), report IC50 for `CC(C)NC(=O)N1Cc2ccc(-c3nccc(Nc4ccc5[nH]ncc5c4)n3)cc2C1`
Response: 1.84 µM

Query: Please report IC50 with Rho-associated protein kinase 1 (Homo sapiens) for item `Cn1c(C(=O)N2CC(F)(F)C2)cc2c1CN(c1nc(Nc3ccc(-c4cn[nH]c4)cc3)nc(C3COC3)n1)CC2` .
Response: > 4.5 µM

Query: Please report the measured IC50 for `N[C@H]1CCN(S(=O)(=O)c2cccc3cncc(C4CC4)c23)C1` tested on Rho-associated protein kinase 1 (Homo sapiens).
Response: < 1 µM

Query: Using Rho-associated protein kinase 1 (Homo sapiens) as the test system, report measured IC50 of `Cn1c(C(=O)N2CC(F)(F)C2)cc2ccc(-c3nc4c(c(Nc5ccc(-c6cn[nH]c6)cc5)n3)CCC4)cc21` .
Response: > 10 µM

Query: Report value: IC50, system: Rho-associated protein kinase 1 (Homo sapiens), molecule: `Cn1c(C(=O)OCC(F)(F)F)cc2c1CN(c1nccc(Nc3ccc(-c4cn[nH]c4)cc3)n1)CC2`
Response: > 4.5 µM

Query: State the measured IC50 (Rho-associated protein kinase 1 (Homo sapiens)) of `COc1nc(-n2nc(Nc3ccc4[nH]ncc4c3Cl)c3ccccc32)ccc1OCC(=O)NC(C)C`
Response: < 0.3 µM

Query: Report measured IC50 on Rho-associated protein kinase 1 (Homo sapiens); entry: `COc1cc(F)cc([C@@H](CO)NC(=O)N2CCc3cc(-c4c[nH]nc4F)c(F)cc32)c1`
Response: ≤ 0.05 µM

Query: Fill: IC50 (Rho-associated protein kinase 1 (Homo sapiens)) for this molecule `COc1cc(F)cc(CNC(=O)c2ncn3cc(-c4cn[nH]c4)ccc23)c1`
Response: ≤ 0.05 µM

* * *

Literature compilation of IC50 measurements on Rho-associated protein kinase 1 (Homo sapiens).

The cases that follow already have their IC50 on record.
>  <compound.smiles>
O=C(Nc1cccc(-c2noc(Nc3ccc4[nH]ncc4c3Cl)n2)c1)c1ccccc1F

>  <recorded.value>
< 0.3 µM

$$$$
>  <compound.smiles>
O=C(OC1CC(F)(F)C1)N1CCc2cc(-c3nccc(Nc4ccc(-c5cn[nH]c5)cc4)n3)ccc2C1

>  <recorded.value>
> 10 µM

$$$$
>  <compound.smiles>
O=C(NCC1CC1)c1cccc(CNC(=O)N2CCc3cc(-c4cn[nH]c4)c(F)cc32)c1

>  <recorded.value>
≤ 0.05 µM

$$$$

Query: Report IC50 for `COc1cc(-n2nc(Nc3ccc4[nH]ncc4c3Cl)cc2C)ccc1OCC(=O)NC(C)C`
Response: > 10 µM

* * *

What follows is literature data on IC50 for Rho-associated protein kinase 1 (Homo sapiens, UniProt Q13464).

Query: Recall the reported IC50 of `COc1cc(F)cc(CN(C(=O)N2CCc3cc(-c4cn[nH]c4)ccc32)C2CCOCC2)c1` when tested on Rho-associated protein kinase 1 (Homo sapiens, UniProt Q13464).
Response: 500 to 5000 nM

Query: State the measured IC50 (Rho-associated protein kinase 1 (Homo sapiens, UniProt Q13464)) of `Cn1c(C(=O)N2CC(F)(F)C2)cc2ccc(-c3nccc(Nc4ccc5c(N)nccc5c4)n3)cc21`
Response: > 10000 nM

Query: Identify measured IC50 obtained with Rho-associated protein kinase 1 (Homo sapiens, UniProt Q13464) for `Cn1cc(C(=O)Nc2cccc(-n3nc(Nc4ccc5[nH]ncc5c4)c4ccccc43)n2)cn1` .
Response: < 300 nM

Query: Please respond with reported IC50 (system Rho-associated protein kinase 1 (Homo sapiens, UniProt Q13464)) for `Cc1cncc2cccc(S(=O)(=O)N3CC[C@H](NC4CCCCC4)C3)c12` .
Response: 1000 to 3000 nM

* * *

pIC50: −log10 of the molar value.
Note to self: these compounds have pIC50 reported for Rho-associated protein kinase 1 (Homo sapiens) in various publications.

Study these solved cases before continuing.
>  <compound.smiles>
COc1cc(F)cc(CNC(=O)n2ccc3cc(-c4cn[nH]c4)ccc32)c1

>  <pIC50>
6.30 to 7.30

$$$$
>  <compound.smiles>
Cn1cc(C(=O)Nc2cc(-n3nc(Nc4ccc5[nH]ncc5c4Cl)c4ccccc43)ccn2)cn1

>  <pIC50>
5.00 to 5.52

$$$$

Here is another compound to look at.
Query: Consider the compound `O=C(Nc1ccnnc1)c1ccc2ccc(-c3nccc(Nc4ccc5[nH]ncc5c4)n3)cc2n1` and give its recorded pIC50.
Response: < 5.00
